# Test system: 126254-015-R-J1-PDC complex spheroid growth, % test/control;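 also: spheroids exposed to compound for seven days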
# ASSAY DETAILS: Anticancer human tumor 126254-015-R-J1-PDC patient-derived soft tissue sarcoma cell line growth inhibition [Asc]
# TEST PARAMETERS: second compound 1 µM; first compound 1 µM; hits give low values
Rule: viability, T/C below 50% gives condition met. Equal to or above 50% gives condition not met.

Recorded results for 3 compounds are shown here.
- COMPOUND: "O=C(c1ccc(F)c(F)c1Nc1ccc(I)cc1F)N1CC(O)([C@@H]2CCCCN2)C1 + Cc1c(S(C)(=O)=O)c(-c2cc(F)cc(N3CCN(c4ccc(NS(=O)(=O)c5ccc(NC(CCN6CCC(C(=O)OCCCP(=O)(O)O)CC6)CSc6ccccc6)c(S(=O)(=O)C(F)(F)F)c5)cc4)CC3)c2)c(-c2ccc(Cl)cc2)n1C(C)C"
  TARGET DESC: "126254-015-R-J1-PDC complex spheroid growth, % test/control"
  CLASS ASSIGNMENT: "condition met"
- COMPOUND: "C=C(F)C(=O)N1CCN(c2nc(OCC3CCCN3C)nc3c2CCN(c2cccc4cccc(Cl)c24)C3)CC1CC#N (configuration not stated) + CNC(C)C(=O)NC1CN(S(=O)(=O)c2cccc(S(=O)(=O)N3CCC4CCC(C(=O)NC(c5ccccc5)c5ccccc5)N4C(=O)C(NC(=O)C(C)NC)C3)c2)CCC2CCC(C(=O)NC(c3ccccc3)c3ccccc3)N2C1=O"
  TARGET DESC: "126254-015-R-J1-PDC complex spheroid growth, % test/control"
  CLASS ASSIGNMENT: "condition met"
- COMPOUND: "CNC(C)C(=O)NC1CN(S(=O)(=O)c2cccc(S(=O)(=O)N3CCC4CCC(C(=O)NC(c5ccccc5)c5ccccc5)N4C(=O)C(NC(=O)C(C)NC)C3)c2)CCC2CCC(C(=O)NC(c3ccccc3)c3ccccc3)N2C1=O (configuration not stated) + Cc1c(S(C)(=O)=O)c(-c2cc(F)cc(N3CCN(c4ccc(NS(=O)(=O)c5ccc(NC(CCN6CCC(C(=O)OCCCP(=O)(O)O)CC6)CSc6ccccc6)c(S(=O)(=O)C(F)(F)F)c5)cc4)CC3)c2)c(-c2ccc(Cl)cc2)n1C(C)C"
  TARGET DESC: "126254-015-R-J1-PDC complex spheroid growth, % test/control"
  CLASS ASSIGNMENT: "condition met"

-- ask Confirm or reject: viability, T/C of C=C(F)C(=O)N1CCN(c2nc(OCC3CCCN3C)nc3c2CCN(c2cccc4cccc(Cl)c24)C3)CC1CC#N (configuration not stated) + Cc1c(S(C)(=O)=O)c(-c2cc(F)cc(N3CCN(c4ccc(NS(=O)(=O)c5ccc(NC(CCN6CCC(C(=O)OCCCP(=O)(O)O)CC6)CSc6ccccc6)c(S(=O)(=O)C(F)(F)F)c5)cc4)CC3)c2)c(-c2ccc(Cl)cc2)n1C(C)C lies strictly below 50%
-- reply condition not met

-- ask Confirm or reject: viability, T/C of O=C(c1cc(Cc2n[nH]c(=O)c3ccccc23)ccc1F)N1CCN(C(=O)C2CC2)CC1 + CNC(C)C(=O)NC1CN(S(=O)(=O)c2cccc(S(=O)(=O)N3CCC4CCC(C(=O)NC(c5ccccc5)c5ccccc5)N4C(=O)C(NC(=O)C(C)NC)C3)c2)CCC2CCC(C(=O)NC(c3ccccc3)c3ccccc3)N2C1=O lies strictly below 50%
-- reply condition not met

-- ask Confirm or reject: viability, T/C of CCN1CCN(Cc2ccc(Nc3ncc(F)c(-c4cc(F)c5nc(C)n(C(C)C)c5c4)n3)nc2)CC1 + CNC(C)C(=O)NC1CN(S(=O)(=O)c2cccc(S(=O)(=O)N3CCC4CCC(C(=O)NC(c5ccccc5)c5ccccc5)N4C(=O)C(NC(=O)C(C)NC)C3)c2)CCC2CCC(C(=O)NC(c3ccccc3)c3ccccc3)N2C1=O lies strictly below 50%
-- reply condition not met

-- ask Confirm or reject: viability, T/C of C#Cc1c(F)ccc2cc(O)cc(-c3ncc4c(N5CC6CCC(C5)N6)nc(OCC56CCCN5CC(F)C6)nc4c3F)c12 (configuration not stated) + CNC(C)C(=O)NC1CN(S(=O)(=O)c2cccc(S(=O)(=O)N3CCC4CCC(C(=O)NC(c5ccccc5)c5ccccc5)N4C(=O)C(NC(=O)C(C)NC)C3)c2)CCC2CCC(C(=O)NC(c3ccccc3)c3ccccc3)N2C1=O lies strictly below 50%
-- reply condition met

Cited source for all entries: PubChem BioAssay AID1963429
